Test system: HOP-62
Assay: NCI tumour cell line growth inhibition, 48 h
The source made the active and inactive calls. Rule as the data show it: active = GI50 up to about 1.1 µM and inactive = higher.
Provide the reported GI50 of each item.

N#Cc1cc([N+](=O)[O-])ccc1NC(=O)C(=O)Nc1n[nH]c(N)n1 = > 100 µM (inactive)
O=C(O)CCSC(=O)Nc1cccc([N+](=O)[O-])c1 = > 100 µM (inactive)
Clc1ccc(-c2nc3cc(Cl)ccc3[nH]2)cc1 = 34.4 µM (inactive)
CC(=O)OC1c2ccccc2CCCCCCC12OCCO2 (stereo unspecified) = > 100 µM (inactive)
CC(=O)NNc1nc(C)c(C(=O)/C=C/c2ccc(NC(C)=O)cc2)s1 = > 100 µM (inactive)

# next molecule below
Q) Specify reported GI50 for the molecule shown: FC(F)(F)c1ccc2c(c1)nc(Cc1ccccc1)n2C[C@@H]1CCCN2CCCCC12 (stereo partly specified)
A) 14.6 µM (inactive)

meta.source: ChEMBL document CHEMBL1201862
